assay_target: PRMT5/MEP50 complex (Homo sapiens, UniProt O14744)
Sequence (O14744 whole entry): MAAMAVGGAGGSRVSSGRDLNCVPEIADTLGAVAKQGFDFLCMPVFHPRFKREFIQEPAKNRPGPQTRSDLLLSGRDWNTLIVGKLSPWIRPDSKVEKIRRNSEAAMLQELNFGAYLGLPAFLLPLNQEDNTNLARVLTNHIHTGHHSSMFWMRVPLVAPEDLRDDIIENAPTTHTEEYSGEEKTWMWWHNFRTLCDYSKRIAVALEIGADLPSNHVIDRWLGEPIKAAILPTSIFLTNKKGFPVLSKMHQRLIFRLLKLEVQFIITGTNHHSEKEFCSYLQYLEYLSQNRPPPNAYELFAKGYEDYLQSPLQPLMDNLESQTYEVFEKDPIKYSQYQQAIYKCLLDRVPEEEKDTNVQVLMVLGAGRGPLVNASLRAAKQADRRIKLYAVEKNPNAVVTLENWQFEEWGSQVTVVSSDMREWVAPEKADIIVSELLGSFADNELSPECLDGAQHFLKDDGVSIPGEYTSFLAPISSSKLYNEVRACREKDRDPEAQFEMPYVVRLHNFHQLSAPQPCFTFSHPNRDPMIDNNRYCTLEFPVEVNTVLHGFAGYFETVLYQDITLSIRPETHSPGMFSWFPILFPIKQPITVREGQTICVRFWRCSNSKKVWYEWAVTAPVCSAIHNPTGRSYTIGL
Sequence (Q9BQA1 whole entry, further chain): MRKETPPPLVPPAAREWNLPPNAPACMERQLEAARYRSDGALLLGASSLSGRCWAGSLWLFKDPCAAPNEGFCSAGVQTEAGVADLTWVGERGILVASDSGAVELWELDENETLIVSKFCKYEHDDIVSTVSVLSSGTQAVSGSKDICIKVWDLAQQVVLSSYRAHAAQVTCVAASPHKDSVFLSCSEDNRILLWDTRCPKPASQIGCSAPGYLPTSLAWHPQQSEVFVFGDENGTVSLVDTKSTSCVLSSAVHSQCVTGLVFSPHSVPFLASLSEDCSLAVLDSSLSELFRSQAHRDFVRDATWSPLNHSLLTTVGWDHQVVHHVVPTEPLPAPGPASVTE
assay_method_text: Inhibition of PRMT5/MEP50 (unknown origin) incubated for 1 to 2 hrs in presence of tracer 50 by competitive fluorescence polarization assay
Format: protein-complex assay
measured_property: IC50 (µM)
Field format: number, assumed µM, no unit text.

# IC50 of "Ac-VPGQFDDAD-NH2" = 5.3

* * *

assay_target: PRMT5/MEP50 complex (Homo sapiens, UniProt O14744)
assay_method_text: Binding affinity to PRMT5/MEP50 (unknown origin) assessed as dissociation constant by FITC- Competitive binding assay
Square brackets hold non-standard residues; d marks the D form. Peptide text beside a SMILES is read from it. * marks the point of attachment. FITC = O=C1OC2(c3ccc(O)cc3Oc3cc(O)ccc32)c2ccc(NC(=S)*)cc21; Phe(4-I) = N[C@@H](Cc1ccc(I)cc1)C(=O)O
measured_property: Kd

# Kd of CC(=O)N[C@H](C(=O)N1CCC[C@H]1C(=O)NCC(=O)N[C@@H](CCC(N)=O)C(=O)N[C@@H](Cc1ccc(I)cc1)C(=O)N[C@@H](CC(=O)O)C(=O)N[C@@H](CC(=O)O)C(=O)N[C@@H](C)C(=O)N[C@@H](CC(=O)O)C(=O)N[C@@H](CCCCNC(=S)Nc1ccc2c(c1)C(=O)OC21c2ccc(O)cc2Oc2cc(O)ccc21)C(N)=O)C(C)C (Ac-VPGQ[Phe(4-I)]DDADK(FITC)-NH2) = 279 nM

# Kd of "CC(=O)N[C@H](C(=O)N1CCC[C@H]1C(=O)N[C@H]1CCCCCC[C@@H](C(=O)N[C@@H](CC(=O)O)C(=O)N[C@@H](C)C(=O)N[C@@H](CC(=O)O)C(=O)N[C@@H](CCCCNC(=S)Nc2ccc3c(c2)C(=O)OC32c3ccc(O)cc3Oc3cc(O)ccc32)C(N)=O)NC(=O)[C@H](Cc2ccccc2)NC(=O)[C@H](CCC(N)=O)NC1=O)C(C)C" = > 2000 nM
